- Protocol Details: HoxA9-arrested leukemia cell differentiation promoters – flow cytometry, MLPCN library, primary screen (AID 624256)
- Experimental Context: ER-HoxA9 myeloid progenitors, lysozyme-GFP differentiation, at 10 µM
Among all 360,000 compounds or so, about 3,700 (1%) were called active. Not shown: some 2% with an inconclusive outcome.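 The calls were made as follows: active = normalized GFP-positive differentiation at or above the plate's own cutoff, the solvent-only control mean plus 3 SD; inconclusive = no clear call, values can overlap the other calls; inactive = the rest.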 The list comes from a sample in which actives are over-represented; it also holds close analogues and randomly drawn compounds.
Select the correct class. Options are label 1 (active), label 0 (inactive) and nothing else.

Illustrative cases are given below, each with its answer.
Compound: COc1cccc(-c2nn(-c3ccccc3)cc2/C=C(\C#N)C(=O)NCCCn2ccnc2)c1
Label Value: label 1
--
Compound: O=c1[nH][nH]c2c1[C@H](c1ccc(Cl)cc1)O[C@H](CCc1ccccc1)C2
Label Value: label 0
--
Compound: c1ccc(C[C@H]2CNCCN2CCC23CC4CC(CC(C4)C2)C3)cc1
Label Value: label 1
--
Compound: OC[C@@H]1CN(Cc2cccs2)C[C@H](n2cnc3c(Nc4ccccc4)ncnc32)O1
Label Value: label 0
--
Compound: CC(=O)C[C@@H]1OC[C@H](C)N1S(=O)(=O)c1ccc(C)cc1
Label Value: label 0
--
Compound: CCNC(=O)c1cc2c(c(-c3cccc(-c4cncnc4)c3)n1)[C@H](CCO)N(C(C)=O)C2
Label Value: label 0
--
Compound: COc1cc(OC)cc(C(=O)NCCCn2ccnc2)c1
Label Value: label 0
--
Compound: O=C1CCNCCN1[C@H](CO)Cc1ccccc1
Label Value: label 0
--
Compound: O=C(CN1CCN(c2ccc(Cl)cc2)CC1)c1ccccc1
Label Value: label 0
--
Compound: O=C(Nc1cccc(F)c1)c1cc(-c2ccco2)nc2ccccc12
Label Value: label 0

Moving on to the next compound.
// outcome(item) with item = `CCOC(=O)c1ccn(S(=O)(=O)c2ccc(C)cc2)c1-c1ccccc1` label 0

====

- Protocol Details: HoxA9-arrested leukemia cell differentiation promoters – flow cytometry, MLPCN library, primary screen (AID 624256);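 as to GFP+ MAC1+ double positive: cells exposed to compound for four days before flow analysis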
- Experimental Context: ER-HoxA9 myeloid progenitors, lysozyme-GFP differentiation, at 10 µM; measured here: differentiation confirmed by MAC1 staining, stronger effect = higher value
Hit rate of the full screen: of about 360,000 compounds, about 3,700 (1%) were called active. Inconclusive results (about 2%) are left out. This is one part of a sample in which actives are shown more often than they occur.
Note that class boundaries on GFP+ MAC1+ double positive are bottom (below 1%), middle (1% to below 2%), top (2% or more)

Compound: Cc1ccc(Nc2nc(Cl)c(C=O)s2)cc1
Label Value: middle
--
Compound: C[C@H]([C@@H](O)[C@@H](O)[C@@H](C)C(C)(C)C)[C@H]1CC[C@H]2C3CC[C@H]4C[C@H](OS(=O)(=O)O)[C@@H](OS(=O)(=O)O)C[C@]4(C)[C@H]3CC[C@]12C (some centres undefined)
Label Value: top
--
Compound: CN1C[C@@H](CO)O[C@@H](n2cnc3c(N4CCN(CCO)CC4)ncnc32)C1
Label Value: middle
--
Compound: COc1cccc(-c2noc(C3CCCN(C(=O)c4ccc(F)cc4)C3)n2)c1 (centres undefined)
Label Value: middle
--
Compound: Cc1ccc(Nc2nnc(SC(C)C(=O)NC3CC3)s2)cc1 (centres undefined)
Label Value: bottom

Which class does O=S1(=O)CC(N2CCN(CCO)CC2)CN1Cc1cn(Cc2cccc(Cl)c2)nn1 (centres undefined) fall in? middle

Which class does `Nc1[nH]c(C(=O)c2ccccc2)c(-c2ccncc2)c1C(=O)NCc1cccc2ccccc12` fall in? middle

Determine which band this compound sits in: CC(C)c1ccc(-c2noc(C3CCCN(S(C)(=O)=O)C3)n2)cc1 (centres undefined) top

GET /class?item= `CCCCC(=O)Nc1nc(C)c(-c2csc(Nc3ccc(Cl)cc3)n2)s1` bottom
